Values compiled from PubChem BioAssay (NCI).

Reported TGI by item:
# System: SNB-75 CNS
# METHOD NOTES: NCI tumour cell line growth inhibition, 48 h

The following compounds have reported results that may help.
Prompt line: // TGI lookup, key: Cc1ccc2nc(-c3ccc(NC(=O)c4ccc(N)cc4)c(S(=O)(=O)O)c3)sc2c1
Response line: > 100 µM

Prompt line: Entry Cc1cc(C)c2c(c1)N[S@@](=O)S2 has what TGI?
Response line: > 100 µM

Prompt line: Fill blank: measured TGI of the compound CC(C)CCC[C@@H](C)C1CCC2[C@@H]3CCC4C[C@@H](NS(C)(=O)=O)CC[C@]4(C)C3CC[C@@]21C (some centres undefined) is ____.
Response line: > 100 µM

Prompt line: I'd like to know its TGI. The compound in question is O=C(CO[N+](=O)[O-])OC/C=C/c1ccccc1
Response line: > 100 µM

Prompt line: State the recorded TGI for this entry: O=S(=O)(c1ccccc1)N1CN2CN(C1)CN(S(=O)(=O)c1ccccc1)C2
Response line: 66.1 µM

Prompt line: Sample CCCCCCCCCC(CCCC(O)CC(=O)O)OC1OC(COC2OC(C)C(OC(C)=O)C(O)C2O)C(O)C(O)C1OC1OC(CO)C(O)C(O)C1OC1OC(C)C(OC(=O)CC(C)C)C(O)C1O (centres undefined) — what was its TGI?
Response line: > 35 µM

Prompt line: Report TGI for CC1(C)OCN(c2ccc(S(N)(=O)=O)cc2)Cn2c1nc1ccccc12 please.
Response line: > 100 µM

Prompt line: Find the recorded TGI belonging to CN1CCN(c2ccc(NC(=O)c3cncnc3Nc3ccc(OCc4cccc(F)c4)c(Cl)c3)cc2)CC1 and report it.
Response line: 18.8 µM

New cases:
Prompt line: // query TGI value for entry CN(C)Cc1ccc(C(C)(C)C)cc1-c1cc(C(C)(C)C)ccc1CN(C)C
Response line: > 100 µM
